Reference source: ChEMBL document CHEMBL1201862

Tested on: Streptococcus sp. 'group A'
measurement.protocol: growth inhibition of control SK(-) GAS strain, dose response, counter-screen for streptokinase expression inhibitor project, luminescence, kanamycin, BacTiterGlo, confirmation (AID 1900)
Type: functional, organism-based
Activity calls are given as the source filed them. Cut-off read from the data, not from the text of the source: actives have a measured EC50 and inactives only a lower limit.
experimental.readout: EC50

Before answering, review these 6 worked examples.
{"compound": "Cc1c(N=N/C(C#N)=C(\\O)c2ccccc2)c(=O)n(-c2ccccc2)n1C", "assayed.target": "Streptococcus sp. 'group A'", "EC50": "2.43 µM (active)"}
{"compound": "CCCCCCOC(=O)/C=C/c1c(C)nc(O)nc1O", "assayed.target": "Streptococcus sp. 'group A'", "EC50": "0.604 µM (active)"}
{"compound": "COc1ccc(-c2nc(NC(C)=O)sc2-c2ccc(OC)cc2)cc1", "assayed.target": "Streptococcus sp. 'group A'", "EC50": "6.7 µM (active)"}
{"compound": "CC1(C)Cc2c(cnn2-c2ccccc2)-c2c1c1ccccc1n2CC(O)CCl (stereo not drawn)", "assayed.target": "Streptococcus sp. 'group A'", "EC50": "8.41 µM (active)"}
{"compound": "CCCN=C1C(=O)C2=C(C(O)=C1C)N1CC3NC3[C@@]1(OC)C2COC(N)=O (stereo partly drawn)", "assayed.target": "Streptococcus sp. 'group A'", "EC50": "< 0.06 µM (active)"}
{"compound": "COc1cc(C)ccc1OCCCOc1ccccc1Br", "assayed.target": "Streptococcus sp. 'group A'", "EC50": "> 150 µM (not active)"}

## Task Query (compound): O=C1C=C(NC(=O)Nc2ccc(Cl)c(Cl)c2)CCC1 ; field requested: EC50
## Result 18 µM (active)

## Task What value of EC50 has been reported for the following compound? CCc1ccc(-c2cc(C)no2)cc1S(=O)(=O)Nc1cccc(CN2CCCC2)c1
## Result > 150 µM (not active)
